Species on record: Rattus norvegicus
experimentSummary: Open TG-GATES - Regimen: Single
Format: toxicity, organism-based, Sprague-Dawley
Set-up: regimen Single, gender Male, age 6 weeks
recordedConditions: in vivo, po, 30 mg/kg, 6 h, tissue Plasma, route gavage, dose level Middle
measuredParameter: GLC (mg/dL)
One number for each entry, in mg/dL.

[[record]]
molecule = "CN(C)CCCN1c2ccccc2CCc2ccc(Cl)cc21 [CLOMIPRAMINE]"
measuredparameter = "GLC"
observedmeasurement = 186.4

[[record]]
molecule = "CN(C)CCN(Cc1cccs1)c1ccccn1"
measuredparameter = "GLC"
observedmeasurement = 173

[[record]]
molecule = "CC1=C(/C=C/C(C)=C/C=C/C(C)=C/CO)C(C)(C)CCC1 [RETINOL]"
measuredparameter = "GLC"
observedmeasurement = 176.8


Then there is this molecule:
Fill blank: measured GLC of the molecule CN(C)CCCN1c2ccccc2CCc2ccccc21 [IMIPRAMINE] is ____.
177.4

meta.source: ChEMBL document CHEMBL3885861
